Tested on: K562 cells
Assay: Cell viability, Cell Titer Glo 2.0 assay, K562
Settings: 72 hours
OBSERVABLE: Effect on Cell Viability, K562

MOLECULE	TARGET_DESC	ENDPOINT_RESULT
Cn1cc2cc(-c3cc(Cl)c4cc(N5CCN6CCCC6C5)cnc4n3)cc(F)c2n1 (stereo not shown)	K562 cells	B (100-1000 nM)
Cc1c(O)c(-c2ncc3cc(N4C[C@@H](C)N[C@@H](C)C4)cnc3n2)cc2cn(C)nc12	K562 cells	B (100-1000 nM)
Cc1cn2cc(-c3cc(Cl)c4cc(N5CCNCC5)cnc4n3)cc(F)c2n1	K562 cells	B (100-1000 nM)

====

System: MYB mRNA
Assay: Splicing RT-qPCR assay, MYB canonical (CJ) and alternative (AJ) junction mRNA
Type: cell-based, human
Details: Homo sapiens, canonical junction mRNA, qPCR panel; read-out: MYB CJ (decrease in CJ mRNA levels, IC50)
Where a name gives a salt, the structure may show the parent alone.

COMPOUND	IC50
Cn1cc2cc(-c3cc(Cl)c4cc(N5CCNCC5)cnc4n3)c(O)c(F)c2n1	< 100 nM
Cc1c(O)c(-c2ccc3cc(N4CC[C@@H](NCC5CC5)C4)cnc3n2)cc2cn(C)nc12	< 100 nM
Cn1cc2cc(-c3ccc4c(Cl)c(N5CCNC6(CC6)C5)cnc4n3)c(O)cc2n1	100 to 1000 nM
C[C@@H]1CN(c2cnc3nc(-c4cc5cn(C)nc5c(F)c4O)cc(Cl)c3c2)C[C@@H](C)N1	< 100 nM
Cc1c(O)c(-c2cc(Cl)c3cc(N4CCC(N(C)C)C4)cnc3n2)cc2cn(C)nc12 (centres unmarked)	< 100 nM
CN[C@H]1CN(c2cnc3nc(-c4cc5cn(C)nc5c(C)c4O)ccc3c2)C[C@H]1F	100 to 1000 nM
C[C@@H]1CN(c2cnc3nc(-c4cc5cn(C)nc5cc4O)cc(Cl)c3c2)C[C@@H](C)N1 [Compound 243, hydrochloride]	100 to 1000 nM
Cc1c(O)c(-c2ccc3cc(N4CCC(NCC5CC5)C4)cnc3n2)cc2cn(C)nc12 (centres unmarked) [Compound 105]	< 100 nM

====

Tested on: K562 cells
Test: Cell viability, Cell Titer Glo 2.0 assay, K562
Settings: 72 hours
Where a name gives a salt, the structure may show the parent alone.
OBSERVABLE: Effect on Cell Viability, K562

COMPOUND	ENDPOINT_RESULT
Cc1c(O)c(-c2cc(Cl)c3cc(N4C[C@H](C)N[C@@H](C)C4)cnc3n2)cc2cn(C)nc12	A (<100 nM)
C[C@@H]1CN(c2cnc3nc(-c4cc5cn(C)nc5cc4O)cc(Cl)c3c2)C[C@@H](C)N1 [Compound 243, hydrochloride]	B (100-1000 nM)
Cc1c(O)c(-c2cc(C#N)c3cc(N4C[C@H](C)N[C@@H](C)C4)cnc3n2)cc2cn(C)nc12	A (<100 nM)
Cc1cn2cc(-c3ccc4cc(N(C)[C@@H]5CCNC5)cnc4n3)cc(F)c2n1 [Compound 361, hydrochloride]	C (1000-9999 nM)
Cc1cn2cc(-c3cc(Cl)c4cc(N5C[C@@H](C)NC6(CC6)C5)cnc4n3)cc(F)c2n1	C (1000-9999 nM)
CN[C@H]1CN(c2cnc3nc(-c4cc5cn(C)nc5c(C)c4O)ccc3c2)C[C@H]1F	B (100-1000 nM)
Cc1cn2nc(-c3ccc4cc(NC5CCNCC5)cnc4n3)cc(C)c2n1	C (1000-9999 nM)

====

System: HTT mRNA
Test: Splicing RT-qPCR assay, HTT canonical (CJ) and alternative (AJ) junction mRNA
Assay type: cell-based, human
Conditions: Homo sapiens, canonical junction mRNA, qPCR panel; read-out: HTT CJ (decrease in CJ mRNA levels, IC50)
Counter-ions that a name gives are not always drawn.
OBSERVABLE: IC50

MOLECULE	ENDPOINT_RESULT
COc1nc(-c2cc3cn(C)nc3c(C)c2O)nc2ncc(N3C[C@@H](C)N[C@@H](C)C3)cc12	1000 to 10000 nM
CCN[C@H]1CCN(c2cnc3nc(-c4cc5cn(C)nc5c(C)c4O)ccc3c2)C1	100 to 1000 nM
C[C@H]1CN(c2cnc3nc(-c4cc5cn(C)nc5cc4O)cc(Cl)c3c2)CC2(CC2)N1	1000 to 10000 nM
C[C@@H]1CN(c2cnc3nc(-c4cc5cn(C)nc5c(F)c4O)ccc3c2)C[C@H](C)N1	< 100 nM
Cn1cc2cc(-c3cnc4cc(N5CC[C@@H](NC6CC6)C5)ccc4n3)c(O)c(F)c2n1	< 100 nM
CN[C@@H]1CN(c2cnc3nc(-c4cc5cn(C)nc5c(C)c4O)ccc3c2)C[C@H]1C	100 to 1000 nM
C[C@@H]1CN(c2cnc3nc(-c4cc(F)c5nn(C)cc5c4)cc(Cl)c3c2)CC2(CC2)N1	1000 to 10000 nM
Cc1cn2cc(-c3cc(Cl)c4cc(N5C[C@H](C)N[C@@H](C)C5)cnc4n3)cc(F)c2n1	100 to 1000 nM
C[C@@H]1CN(c2cnc3nc(-c4cc(F)c5nn(C)cc5c4)cc(Cl)c3c2)C[C@H](C)N1	1000 to 10000 nM
Cn1cc2cc(-c3cc(Cl)c4cc(N5CCNC6(CC6)C5)cnc4n3)c(O)c(F)c2n1	100 to 1000 nM
CN(c1cnc2nc(-c3cc4cn(C)nc4c(F)c3O)cc(Cl)c2c1)[C@H]1CCNC1	1000 to 10000 nM
CN[C@H]1CCN(c2cnc3nc(-c4cc(C)c5nc(C)cn5n4)ccc3c2)C1	< 100 nM
Cc1c(O)c(-c2cc(Cl)c3cc(N(C)C4CCNC4)cnc3n2)cc2cn(C)nc12 (stereo not shown)	1000 to 10000 nM
C[C@@H]1CN(c2cnc3nc(-c4cc5cn(C)nc5c(F)c4O)cc(C#N)c3c2)C[C@H](C)N1 [Compound 266, hydrochloride]	100 to 1000 nM
Cc1c(O)c(-c2ncc3cc(N4CC[C@@H](N)C4)cnc3n2)cc2cn(C)nc12 [Compound 159, 2,2,2-trifluoroacetate]	< 100 nM
CNC1CCN(c2cnc3nc(-c4cc5cn(C)nc5c(C)c4O)ncc3c2)C1 (stereo not shown)	100 to 1000 nM

====

System: MYB mRNA
Assay: Splicing RT-qPCR assay, MYB canonical (CJ) and alternative (AJ) junction mRNA
Type: cell-based, human
Details: Homo sapiens, canonical junction mRNA, qPCR panel; read-out: MYB CJ (decrease in CJ mRNA levels, IC50)
pIC50: −log10 of the molar value.
Each entry below carries its reported pIC50.
OBSERVABLE: pIC50

COMPOUND	TARGET_DESC	OBSERVABLE	ENDPOINT_RESULT
Cc1c(O)c(-c2cc(Cl)c3cc(N(C)C4CCNC4)cnc3n2)cc2cn(C)nc12 (stereo not shown)	MYB mRNA	pIC50	6.00 to 7.00
Cc1c(O)c(-c2ccc3c(Cl)c(N4C[C@@H](C)N[C@@H](C)C4)cnc3n2)cc2cn(C)nc12	MYB mRNA	pIC50	6.00 to 7.00
CN[C@@H]1CCN(c2cnc3nc(-c4cc5cn(C)nc5c(C)c4O)nc(OC)c3c2)C1	MYB mRNA	pIC50	> 7.00
CN[C@@H]1CCN(c2cnc3nc(-c4cc(F)c5nc(C)cn5c4)ncc3c2)C1	MYB mRNA	pIC50	> 7.00

====

System: K562 cells
Test: Cell viability, Cell Titer Glo 2.0 assay, K562
Settings: 72 hours

COMPOUND	Effect on Cell Viability, K562
CN[C@@H]1CCN(c2cnc3nc(-c4cc(F)c5nc(C)cn5c4)ncc3c2)C1 [Compound 202]	B (100-1000 nM)
CN[C@H]1CCN(c2cnc3nc(-c4cc5cn(C)nc5c(C)c4O)cc(Cl)c3c2)C1.Cl [Compound 287]	A (<100 nM)
CN[C@@H]1CCN(c2cnc3nc(-c4cc(C)c5nc(C)cn5n4)cc(Cl)c3c2)C1 [Compound 341]	A (<100 nM)
CN1CCC[C@@H]2CN(c3cnc4nc(-c5cc6cn(C)nc6c(F)c5O)cc(Cl)c4c3)C[C@@H]21 [Compound 303]	B (100-1000 nM)
Cc1c(O)c(-c2cc(Cl)c3cc(N4C[C@@H](C)N[C@@H](C)C4)cnc3n2)cc2cn(C)nc12 [Compound 207]	A (<100 nM)
Cc1cn2nc(-c3ccc4c(Cl)c(N5C[C@@H](C)N[C@@H](C)C5)cnc4n3)cc(C)c2n1 [Compound 392]	B (100-1000 nM)
Cc1c(O)c(-c2cc(Cl)c3cc(N4C[C@H](C)NC5(CC5)C4)cnc3n2)cc2cn(C)nc12 [Compound 398]	B (100-1000 nM)
C[C@@H]1CN(c2cnc3nc(-c4cc5cn(C)nc5cc4O)ccc3c2)C[C@H](C)N1 [Compound 343]	B (100-1000 nM)
